Molecular target: His6-tagged ClpC1-NTD substrate, M. smegmatis ClpC1P1P2 (UniProt A0R574+P9WPC9)
Sequence (P9WPC9 1-156, looked up, natural form): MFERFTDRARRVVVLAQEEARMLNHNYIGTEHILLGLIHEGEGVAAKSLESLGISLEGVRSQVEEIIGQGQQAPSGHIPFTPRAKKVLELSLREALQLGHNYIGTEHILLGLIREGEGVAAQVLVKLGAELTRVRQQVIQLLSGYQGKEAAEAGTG
Sequence (A0R574 whole entry): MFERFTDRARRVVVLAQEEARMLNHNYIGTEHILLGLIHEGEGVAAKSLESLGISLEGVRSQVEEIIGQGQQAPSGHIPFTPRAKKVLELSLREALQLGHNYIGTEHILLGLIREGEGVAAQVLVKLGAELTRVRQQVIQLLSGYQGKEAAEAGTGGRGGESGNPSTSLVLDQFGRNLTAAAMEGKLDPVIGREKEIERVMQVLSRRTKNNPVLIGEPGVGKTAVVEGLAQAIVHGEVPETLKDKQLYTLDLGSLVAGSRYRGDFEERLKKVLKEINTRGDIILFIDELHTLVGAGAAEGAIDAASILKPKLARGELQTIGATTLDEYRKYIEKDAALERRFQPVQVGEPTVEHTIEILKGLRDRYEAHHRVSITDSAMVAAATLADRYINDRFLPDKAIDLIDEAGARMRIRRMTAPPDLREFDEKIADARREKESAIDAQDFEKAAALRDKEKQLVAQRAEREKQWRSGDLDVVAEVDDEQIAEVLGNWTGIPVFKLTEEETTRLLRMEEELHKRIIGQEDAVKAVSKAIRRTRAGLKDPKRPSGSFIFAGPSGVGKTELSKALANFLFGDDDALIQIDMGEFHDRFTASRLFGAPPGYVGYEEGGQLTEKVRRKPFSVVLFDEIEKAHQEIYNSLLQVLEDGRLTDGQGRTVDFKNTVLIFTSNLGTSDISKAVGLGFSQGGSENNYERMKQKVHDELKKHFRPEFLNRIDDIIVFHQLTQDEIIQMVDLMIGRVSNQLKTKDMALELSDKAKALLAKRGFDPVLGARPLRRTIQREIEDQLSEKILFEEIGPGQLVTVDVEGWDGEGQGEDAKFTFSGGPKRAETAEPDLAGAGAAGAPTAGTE
Assay: biochemical
Assay type: biochemical
Conditions: Msm; Measurement 1-6; read-out: 1-Dmax, single measurements
As shown below, each of these compounds has a reported 1-Dmax (percent substrate remaining at maximal degradation) value.
Please reply with the bare figure in % and do not write the unit itself.

CO[C@H](c1ccccc1)[C@@H]1NC(=O)[C@H](C)NC(=O)[C@H](C[C@@H](C)CO)N(C)C(=O)[C@H](Cc2cn(Cc3cn(CCOCCOCCOCCOCCn4cc(Cn5cc(C[C@H]6C(=O)N(C)[C@@H](C[C@@H](C)CO)C(=O)N[C@@H](C)C(=O)N[C@@H]([C@H](OC)c7ccccc7)C(=O)N[C@@H](C(C)C)C(=O)N(C)[C@@H](CC(C)C)C(=O)N[C@@H](C(C)C)C(=O)N6C)c6ccccc65)nn4)nn3)c3ccccc23)N(C)C(=O)[C@H](C(C)C)NC(=O)[C@H](CC(C)C)N(C)C(=O)[C@H](C(C)C)NC1=O = 89.3

# lookup: 1-Dmax (percent substrate remaining at maximal degradation) of `CO[C@H](c1ccccc1)[C@@H]1NC(=O)[C@H](C)NC(=O)[C@H](C[C@@H](C)CO)N(C)C(=O)[C@H](Cc2cn(Cc3cn(CCCCCn4cc(Cn5cc(C[C@H]6C(=O)N(C)[C@@H](C[C@@H](C)CO)C(=O)N[C@@H](C)C(=O)N[C@@H]([C@H](OC)c7ccccc7)C(=O)N[C@@H](C(C)C)C(=O)N(C)[C@@H](CC(C)C)C(=O)N[C@@H](C(C)C)C(=O)N6C)c6ccccc65)nn4)nn3)c3ccccc23)N(C)C(=O)[C@H](C(C)C)NC(=O)[C@H](CC(C)C)N(C)C(=O)[C@H](C(C)C)NC1=O`
60.5

----------
Target: ClpC1 NTD protein (M. tuberculosis) (Mycobacterium tuberculosis)
Experiment: biochemical
Format: binding
Settings: SPR, single independent measurements; read-out: koff ClpC1-NTD
*1 amine or outer side, *2 acyl side, *3 side chain or, on linkers, in order; H or OH if unused. Where a SMILES comes first, the peptide text is derived from it. [ ]: non-standard residue; d: D form. X2 = C#CCn1cc(C[C@@H](C(=O)[*:2])N(C)[*:1])c2ccccc21; X1 = C#CCn1cc(C[C@H](N[*:1])C(=O)[*:2])c2ccccc21; NMeLeu(5-OH,4R) = CN[C@@H](C[C@@H](C)CO)C(=O)O; Phe(βR-OMe) = CO[C@H](c1ccccc1)[C@H](N)C(=O)O; NMeL = CN[C@@H](CC(C)C)C(=O)O
As shown below, each of these compounds has a reported koff value.
Please reply with the bare figure in s⁻¹ and do not write the unit itself.

Some entries whose results are on file:
C#CCn1cc(C[C@H]2C(=O)N(C)[C@@H](C[C@@H](C)CO)C(=O)N[C@@H](C)C(=O)N[C@@H]([C@H](OC)c3ccccc3)C(=O)N[C@@H](C(C)C)C(=O)N(C)[C@@H](CC(C)C)C(=O)N[C@@H](C(C)C)C(=O)N2C)c2ccccc21 [Compound 26] (cyclo(A[Phe(βR-OMe)]V[NMeL]V[X2][NMeLeu(5-OH,4R)])) = 0.04
C#CCn1cc(C[C@@H]2NC(=O)[C@H](C(C)C)NC(=O)[C@H](CC(C)C)N(C)C(=O)[C@H](C(C)C)NC(=O)[C@H](Cc3ccccc3)NC(=O)[C@H](C)NC(=O)[C@H](C[C@@H](C)CO)N(C)C2=O)c2ccccc21 [SI-72] (cyclo(AFV[NMeL]V[X1][NMeLeu(5-OH,4R)])) = 0.07

Please find the next compound below.
# lookup: koff of `CO[C@H](c1ccc(OCc2cn(CCCCCn3cc(COc4ccc([C@@H](OC)[C@@H]5NC(=O)[C@H](C)NC(=O)[C@H](C[C@@H](C)CO)N(C)C(=O)[C@H](Cc6cn(C)c7ccccc67)NC(=O)[C@H](C(C)C)NC(=O)[C@H](CC(C)C)N(C)C(=O)[C@H](C(C)C)NC5=O)cc4)nn3)nn2)cc1)[C@@H]1NC(=O)[C@H](C)NC(=O)[C@H](C[C@@H](C)CO)N(C)C(=O)[C@H](Cc2cn(C)c3ccccc23)NC(=O)[C@H](C(C)C)NC(=O)[C@H](CC(C)C)N(C)C(=O)[C@H](C(C)C)NC1=O`
0.001
